Documented melting point across a set of molecules

- MOLECULE: "O=C(Nc1cc(C2CC2)n[nH]1)c1cc2ccccc2s1 [Compound 91]"
  melting point: "238 to 239 °C"
- MOLECULE: "O=C(Nc1cc(C2CC2)n[nH]1)c1cc2ccccc2[nH]1 [Compound 102]"
  melting point: "268 to 269 °C"
- MOLECULE: "COC(=O)c1ccc(C(=O)Nc2cc(C3CC3)n[nH]2)cc1 [Compound 94]"
  melting point: "173 to 174 °C"
- MOLECULE: "CC(=O)Nc1cc(C2CC2)n[nH]1 [Compound 88]"
  melting point: "167 to 171 °C"
- MOLECULE: "O=C(CCc1ccccc1)Nc1cc(C2CC2)n[nH]1 [Compound 93]"
  melting point: "152 to 160 °C"
- MOLECULE: "O=C(Nc1cc(C2CC2)n[nH]1)c1ccc[nH]1 [Compound 248]"
  melting point: "220 to 221 °C"

These entries and their values trace back to patent US7034049B1.
